assayed-system: T1, human HER-2 extracellular domain (HER-2 ECD) (human, UniProt P04626 23-646)
T1 construct: range 23-646; also called erbB2; HER2 protein
assay-name: competitive Fab-phage ELISA
measurement-type: log10 of IC50 (log10 of the value in nM)
A value of 2 here means IC50 of 100 in nM, since values are log10.

Below, 2 binders whose answers are already recorded.
- binder: "G32 (Fab, V domains shown) VH: EVQLVESGGGLVQPGGSLRLSCAASGFSIWWSWIHWVRQAPGKGLEWVASISPSSGWTSYADSVKGRFTISADTSKNTAYLQMNSLRAEDTAVYYCARWWSSGMDYWGQGTLVTVSS VL: DIQMTQSPSSLSASVGDRVTITCRASQDVNTAVAWYQQKPGKAPKLLIYSASSLYSGVPSRFSGSRSGTDFTLTISSLQPEDFATYYCQQWWWWPWTFGQGTKVEIK"
  log10 of IC50: 0.05
- binder: "G60 (Fab, V domains shown) VH: EVQLVESGGGLVQPGGSLRLSCAASGFSIYYSSIHWVRQAPGKGLEWVASIYPYSGSTYYADSVKGRFTISADTSKNTAYLQMNSLRAEDTAVYYCARYYSSYSSSSSYYYYAFDYWGQGTLVTVSS VL: DIQMTQSPSSLSASVGDRVTITCRASQDVNTAVAWYQQKPGKAPKLLIYSASSLYSGVPSRFSGSRSGTDFTLTISSLQPEDFATYYCQQYYSSPYTFGQGTKVEIK"
  log10 of IC50: 1.90

Could you share which log10 of IC50 value was measured for G61 (Fab, V domains shown) VH: EVQLVESGGGLVQPGGSLRLSCAASGFSIYYSSIHWVRQAPGKGLEWVASIYPSSGSTYYADSVKGRFTISADTSKNTAYLQMNSLRAEDTAVYYCARYYSSSSSYSSSYYYYAFDYWGQGTLVTVSS VL: DIQMTQSPSSLSASVGDRVTITCRASQDVNTAVAWYQQKPGKAPKLLIYSASSLYSGVPSRFSGSRSGTDFTLTISSLQPEDFATYYCQQYYSSPYTFGQGTKVEIK ?
2.16

Note, next up: G31 (Fab, V domains shown) VH: EVQLVESGGGLVQPGGSLRLSCAASGFSIWWSWIHWVRQAPGKGLEWVASIYPSSGYTSYADSVKGRFTISADTSKNTAYLQMNSLRAEDTAVYYCARWWSSALDYWGQGTLVTVSS VL: DIQMTQSPSSLSASVGDRVTITCRASQDVNTAVAWYQQKPGKAPKLLIYSASSLYSGVPSRFSGSRSGTDFTLTISSLQPEDFATYYCQQSWWSPSTFGQGTKVEIK
0.22

Note, next up: G59 (Fab, V domains shown) VH: EVQLVESGGGLVQPGGSLRLSCAASGFYISSSSIHWVRQAPGKGLEWVAYISPSSGYTYYADSVKGRFTISADTSKNTAYLQMNSLRAEDTAVYYCARYYSSYYSYYSYALDYWGQGTLVTVSS VL: DIQMTQSPSSLSASVGDRVTITCRASQDVNTAVAWYQQKPGKAPKLLIYSASSLYSGVPSRFSGSRSGTDFTLTISSLQPEDFATYYCQQSYSYPYTFGQGTKVEIK
0.83
